Documented mass density across a set of compounds
conditions-used: 358.15 K; 101.33 kPa; Liquid; Vibrating tube method
Write it as a number; the unit kg/m3 goes unstated.

Reference set, count: 2
{"columns": ["compound-structure-string", "mass density (kg/m3)"],
 "data": [
  ["CCCC[n+]1cccc(C)c1.O=S(=O)([N-]S(=O)(=O)C(F)(F)F)C(F)(F)F", 1359.9],
  ["CC(C)C[N+]1(C)CCCC1.O=S(=O)([N-]S(=O)(=O)C(F)(F)F)C(F)(F)F", 1348.3]
]}

Query string: State the recorded mass density for this entry: `CCCC[N+]1(C)CCCCC1.O=S(=O)([N-]S(=O)(=O)C(F)(F)F)C(F)(F)F`
Result string: 1331.8

Query string: # lookup: mass density of `CCCC[N+]1(C)CCCC1.O=S(=O)([N-]S(=O)(=O)C(F)(F)F)C(F)(F)F`
Result string: 1349.3

Query string: Form field: reported mass density of `Cc1ccc[n+](CC(C)C)c1.O=S(=O)([N-]S(=O)(=O)C(F)(F)F)C(F)(F)F`
Result string: 1358.4

Query string: Which mass density is reported for this compound? `CC(C)C[N+]1(C)CCCCC1.O=S(=O)([N-]S(=O)(=O)C(F)(F)F)C(F)(F)F`
Result string: 1346.7

Query string: Which measured mass density value corresponds to `CC(C)Cn1cc[n+](C)c1.O=S(=O)([N-]S(=O)(=O)C(F)(F)F)C(F)(F)F` ?
Result string: 1381.1

----------
conditions-used: 293.15 K; 101.33 kPa; Liquid; Vibrating tube method
± gives the expanded uncertainty stated by the source.
property-measured: mass density
Respond with a number, then the unit of measure.

Previously resolved entries follow.
{"columns": ["compound-structure-string", "mass density"],
 "data": [
  ["CCCC[N+]1(C)CCCC1.O=S(=O)([N-]S(=O)(=O)C(F)(F)F)C(F)(F)F", "1406.1 ± 0.7 kg/m3"],
  ["CC(C)C[N+]1(C)CCCC1.O=S(=O)([N-]S(=O)(=O)C(F)(F)F)C(F)(F)F", "1404.5 ± 1.8 kg/m3"]
]}

Query string: Could you share which mass density value was measured for `CCCC[N+]1(C)CCCCC1.O=S(=O)([N-]S(=O)(=O)C(F)(F)F)C(F)(F)F` ?
Result string: 1386.9 ± 0.7 kg/m3

Query string: Reported mass density for `CC(C)Cn1cc[n+](C)c1.O=S(=O)([N-]S(=O)(=O)C(F)(F)F)C(F)(F)F` : what is it?
Result string: 1442.1 ± 1.9 kg/m3

Query string: What does the data say about its mass density? Entry: `CCCC[n+]1cccc(C)c1.O=S(=O)([N-]S(=O)(=O)C(F)(F)F)C(F)(F)F`
Result string: 1418.7 ± 0.7 kg/m3

Query string: Suppose we examine the compound `Cc1ccc[n+](CC(C)C)c1.O=S(=O)([N-]S(=O)(=O)C(F)(F)F)C(F)(F)F` ; what mass density value has been reported?
Result string: 1417.2 ± 1.8 kg/m3

----------
Quick reference for mass density among some compounds
conditions-used: 318.15 K; 101.33 kPa; Liquid; Vibrating tube method
Give the quantity in kg/m3, number only.

// worked examples, mass density included
{"columns": ["compound-structure-string", "readout-number"],
 "data": [
  ["Cc1ccc[n+](CC(C)C)c1.O=S(=O)([N-]S(=O)(=O)C(F)(F)F)C(F)(F)F", 1394.2],
  ["CC(C)C[N+]1(C)CCCC1.O=S(=O)([N-]S(=O)(=O)C(F)(F)F)C(F)(F)F", 1382.4],
  ["CCCC[n+]1cccc(C)c1.O=S(=O)([N-]S(=O)(=O)C(F)(F)F)C(F)(F)F", 1395.6]
]}

Query string: Requested read-out: mass density. Entry: `CCCC[N+]1(C)CCCC1.O=S(=O)([N-]S(=O)(=O)C(F)(F)F)C(F)(F)F`
Result string: 1383.8

Query string: Form field: reported mass density of `CC(C)Cn1cc[n+](C)c1.O=S(=O)([N-]S(=O)(=O)C(F)(F)F)C(F)(F)F`
Result string: 1418.2

Query string: Could you tell me which mass density is on file for `CC(C)C[N+]1(C)CCCCC1.O=S(=O)([N-]S(=O)(=O)C(F)(F)F)C(F)(F)F` ?
Result string: 1380.1

Query string: Give the measured mass density of `CCCC[N+]1(C)CCCCC1.O=S(=O)([N-]S(=O)(=O)C(F)(F)F)C(F)(F)F` .
Result string: 1365.2

----------
Measured mass density accompanies every entry in the list below.
conditions-used: 363.15 K; 101.33 kPa; Liquid; Vibrating tube method
# unit: kg/m3 | format: bare number

{"columns": ["compound-structure-string", "mass density / kg/m3"],
 "data": [
  ["Cc1ccc[n+](CC(C)C)c1.O=S(=O)([N-]S(=O)(=O)C(F)(F)F)C(F)(F)F", 1354.1],
  ["CC(C)C[N+]1(C)CCCCC1.O=S(=O)([N-]S(=O)(=O)C(F)(F)F)C(F)(F)F", 1342.7],
  ["CCCC[N+]1(C)CCCCC1.O=S(=O)([N-]S(=O)(=O)C(F)(F)F)C(F)(F)F", 1327.7],
  ["CC(C)Cn1cc[n+](C)c1.O=S(=O)([N-]S(=O)(=O)C(F)(F)F)C(F)(F)F", 1376.6],
  ["CCCC[N+]1(C)CCCC1.O=S(=O)([N-]S(=O)(=O)C(F)(F)F)C(F)(F)F", 1345.1]
]}

Query string: Data request, read-out mass density, for `CCCC[n+]1cccc(C)c1.O=S(=O)([N-]S(=O)(=O)C(F)(F)F)C(F)(F)F`
Result string: 1355.6

Query string: If you can, please state the reported mass density value of `CC(C)C[N+]1(C)CCCC1.O=S(=O)([N-]S(=O)(=O)C(F)(F)F)C(F)(F)F` .
Result string: 1344.1

----------
conditions-used: 298.15 K; 101.33 kPa; Liquid; Concentric cylinders viscometry
Measured viscosity values are reported for all entries that follow.
Quick reminder: number only, in mPa·s, skip the unit.

{"columns": ["compound-structure-string", "readout-number"],
 "data": [
  ["CC(C)C[N+]1(C)CCCC1.O=S(=O)([N-]S(=O)(=O)C(F)(F)F)C(F)(F)F", 66.29],
  ["CCCC[n+]1cccc(C)c1.O=S(=O)([N-]S(=O)(=O)C(F)(F)F)C(F)(F)F", 65.74],
  ["CC(C)Cn1cc[n+](C)c1.O=S(=O)([N-]S(=O)(=O)C(F)(F)F)C(F)(F)F", 81.44],
  ["CCCC[N+]1(C)CCCC1.O=S(=O)([N-]S(=O)(=O)C(F)(F)F)C(F)(F)F", 79.57],
  ["Cc1ccc[n+](CC(C)C)c1.O=S(=O)([N-]S(=O)(=O)C(F)(F)F)C(F)(F)F", 100.1]
]}

Now look at this one.
Query string: Fill in: viscosity of `CCCC[N+]1(C)CCCCC1.O=S(=O)([N-]S(=O)(=O)C(F)(F)F)C(F)(F)F` is ___
Result string: 189.11

----------
assay-summary: refractive index (Na D-line) (dimensionless)
conditions-used: 318.15 K; 101.33 kPa; Liquid; Standard Abbe refractometry
± gives the expanded uncertainty stated by the source.
property-measured: refractive index

{"columns": ["compound-structure-string", "result"],
 "data": [
  ["CC(C)C[N+]1(C)CCCCC1.O=S(=O)([N-]S(=O)(=O)C(F)(F)F)C(F)(F)F", "1.42524 ± 0.00051"]
]}

Now turn to the next compound.
Query string: What measured refractive index goes with `CCCC[N+]1(C)CCCCC1.O=S(=O)([N-]S(=O)(=O)C(F)(F)F)C(F)(F)F` ?
Result string: 1.42375 ± 0.00037

----------
This listing pairs compounds with measured surface tension liquid-gas.
conditions-used: 318.2 K; Liquid; Pendant drop shape
Give just the numeric value; mN/m need not be written.

{"columns": ["compound-structure-string", "unit-descriptor", "surface tension liquid-gas"],
 "data": [
  ["CC(C)Cn1cc[n+](C)c1.O=S(=O)([N-]S(=O)(=O)C(F)(F)F)C(F)(F)F", "mN/m", 31.81],
  ["Cc1ccc[n+](CC(C)C)c1.O=S(=O)([N-]S(=O)(=O)C(F)(F)F)C(F)(F)F", "mN/m", 32.54],
  ["CC(C)C[N+]1(C)CCCC1.O=S(=O)([N-]S(=O)(=O)C(F)(F)F)C(F)(F)F", "mN/m", 32.65],
  ["CCCC[N+]1(C)CCCCC1.O=S(=O)([N-]S(=O)(=O)C(F)(F)F)C(F)(F)F", "mN/m", 33.17]
]}

Alright, here's another compound for you.
Query string: I'd like to know its surface tension liquid-gas. The compound in question is `CC(C)C[N+]1(C)CCCCC1.O=S(=O)([N-]S(=O)(=O)C(F)(F)F)C(F)(F)F`
Result string: 33.45
